PROCEDURE DETAILS: Stability in serum at 37° C., absorbance and fluorescence after 24 h
Type: in vitro ADME
CONDITION SUMMARY: n = 2
MEASUREMENT NAME: Serum stability after 24 h, remaining fluorescence (% remaining)

MOLECULE	REPORTED
CC(=O)SCC(=O)NC(CO)C(=O)NC(CO)C(=O)NC(CO)C(=O)NCCCCCC(=O)NCCCCN1C(=CC=CC=CC2=[N+](CCCCCC(=O)NCCCCC(NC(=O)NC(CCC(=O)O)C(=O)O)C(=O)O)c3ccc4ccccc4c3C2(C)C)C(C)(C)c2ccccc21 (centres unmarked)	79
CC(=O)SCC(=O)NC(CO)C(=O)NC(CO)C(=O)NC(CO)C(=O)NCCCCCC(=O)NCCCCN1C(=CC=CC=CC2=[N+](CCCCCC(=O)NCCCCC(NC(=O)NC(CCC(=O)O)C(=O)O)C(=O)O)c3ccccc3C2(C)C)C(C)(C)c2ccccc21 (centres unmarked)	86
CC(=O)SCC(=O)NC(CO)C(=O)NC(CO)C(=O)NC(CO)C(=O)NCCCCCC(=O)NCCCCN1C(=CC=CC=CC2=[N+](CCCCCC(=O)NCCCCC(NC(=O)NC(CCC(=O)O)C(=O)O)C(=O)O)c3ccc(S(=O)(=O)[O-])cc3C2(C)C)C(C)(C)c2ccccc21 (centres unmarked) [EuK(SO3)-Cy5-MAS3]	89
CC(=O)SCC(=O)NC(CO)C(=O)NC(CO)C(=O)NC(CO)C(=O)NCCCCCC(=O)NCCCCN1C(=CC=CC=CC2=[N+](CCCCCC(=O)NCCCCC(NC(=O)NC(CCC(=O)O)C(=O)O)C(=O)O)c3ccccc3C2(C)C)C(C)(C)c2cc(S(=O)(=O)[O-])ccc21 (centres unmarked) [EuK-Cy5-(SO3)MAS3]	85
CC(=O)SCC(=O)NC(CO)C(=O)NC(CO)C(=O)NC(CO)C(=O)NCCCCCC(=O)NCCCCN1C(=CC=CC=CC2=[N+](CCCCCC(=O)NCCCCC(NC(=O)NC(CCC(=O)O)C(=O)O)C(=O)O)c3ccccc3C2(C)C)C(C)(C)c2c1ccc1ccccc21 (centres unmarked)	76

###

PROCEDURE DETAILS: Lipophilicity logP(o/w) of 99mTc-labeled hybrid tracers
Type: physicochemical
CONDITION SUMMARY: octanol/water, n = 6
Label class 1 when logP is strictly below -2; otherwise label class 0.

COMPOUND	CLASSIFICATION
CC(=O)SCC(=O)NC(CO)C(=O)NC(CO)C(=O)NC(CO)C(=O)NCCCCCC(=O)NCCCCN1C(=CC=CC=CC2=[N+](CCCCCC(=O)NCCCCC(NC(=O)NC(CCC(=O)O)C(=O)O)C(=O)O)c3ccc(S(=O)(=O)[O-])cc3C2(C)C)C(C)(C)c2ccccc21 (centres unmarked) [EuK(SO3)-Cy5-MAS3]	class 1
CC(=O)SCC(=O)NC(CO)C(=O)NC(CO)C(=O)NC(CO)C(=O)NCCCCCC(=O)NCCCCN1C(=CC=CC=CC2=[N+](CCCCCC(=O)NCCCCC(NC(=O)NC(CCC(=O)O)C(=O)O)C(=O)O)c3ccccc3C2(C)C)C(C)(C)c2cc(S(=O)(=O)[O-])ccc21 (centres unmarked) [EuK-Cy5-(SO3)MAS3]	class 1
CC(=O)SCC(=O)NC(CO)C(=O)NC(CO)C(=O)NC(CO)C(=O)NCCCCCC(=O)NCCCCN1C(=CC=CC=CC2=[N+](CCCCCC(=O)NCCCCC(NC(=O)NC(CCC(=O)O)C(=O)O)C(=O)O)c3ccccc3C2(C)C)C(C)(C)c2c1ccc1ccccc21 (centres unmarked) [EuK-Cy5-(Ar)MAS3]	class 0
CC(=O)SCC(=O)NC(CO)C(=O)NC(CO)C(=O)NC(CO)C(=O)NCCCCCC(=O)NCCCCN1C(=CC=CC=CC2=[N+](CCCCCC(=O)NCCCCC(NC(=O)NC(CCC(=O)O)C(=O)O)C(=O)O)c3ccc4ccccc4c3C2(C)C)C(C)(C)c2ccccc21 (centres unmarked) [EuK(Ar)-Cy5-MAS3]	class 0
CC(=O)SCC(=O)NC(CO)C(=O)NC(CO)C(=O)NC(CO)C(=O)NCCCCCC(=O)NCCCCN1C(=CC=CC=CC2=[N+](CCCCCC(=O)NCCCCC(NC(=O)NC(CCC(=O)O)C(=O)O)C(=O)O)c3ccccc3C2(C)C)C(C)(C)c2ccccc21 (centres unmarked) [EuK-Cy5-MAS3]	class 1
